target-under-test: dopaminergic D2 receptor (Homo sapiens, UniProt P14416)
Sequence (P14416 whole entry): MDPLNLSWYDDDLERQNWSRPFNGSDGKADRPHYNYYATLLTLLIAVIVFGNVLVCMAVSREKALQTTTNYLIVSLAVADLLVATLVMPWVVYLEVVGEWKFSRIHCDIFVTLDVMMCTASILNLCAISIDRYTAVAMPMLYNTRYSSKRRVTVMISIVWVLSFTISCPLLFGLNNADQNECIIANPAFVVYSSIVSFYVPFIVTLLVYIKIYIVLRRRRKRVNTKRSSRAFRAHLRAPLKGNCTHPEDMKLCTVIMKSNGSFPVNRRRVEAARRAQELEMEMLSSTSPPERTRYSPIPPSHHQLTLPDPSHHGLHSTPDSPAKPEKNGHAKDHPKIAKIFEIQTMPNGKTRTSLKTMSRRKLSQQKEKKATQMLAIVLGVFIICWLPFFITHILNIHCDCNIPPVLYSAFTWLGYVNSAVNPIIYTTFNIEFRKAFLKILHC
assay-notes: Cellular functional assay, dopaminergic D2 receptor (agonism/antagonism)
Type: cell-based
assay-context: HEK293; agonist effect, percent of control specific agonist response (3 μM dopamine for control); 1×10^−6 M; D2S (h), HEK-293 cells; read-out: D2-ag [%]
value-type: activation at 1 µM (%)

| line-notation | measured |
| --- | --- |
| O=S(=O)(NCCCCN1CCN(c2cccc3[nH]ccc23)CC1)c1cccc(Cl)c1 | 42 |
| O=S(=O)(NCCCCN1CCN(c2cccc3[nH]ccc23)CC1)c1ccccc1 | 40 |
| O=S(=O)(NCCCCN1CCN(c2nsc3ccccc23)CC1)c1cccc2ccccc12 | -1 |
| O=S(=O)(NCCCCN1CCN(c2cccc3[nH]ccc23)CC1)c1cccc(F)c1 | 49 |
| O=S(=O)(NCCCCN1CCN(c2noc3ccccc23)CC1)c1ccc2ccccc2c1 | 4 |
| Cc1c(S(=O)(=O)NCCCCN2CCN(c3noc4ccccc34)CC2)sc2ccc(F)cc12 | 4 |
| O=S(=O)(NCCCN1CCC(c2noc3cc(F)ccc23)CC1)c1ccc(F)c(Cl)c1 | 4 |
| O=S(=O)(NCCCCN1CCN(c2cccc3[nH]ccc23)CC1)c1cc2ccccc2s1 | 37 |
| Cc1cccc(S(=O)(=O)NCCCN2CCC(c3noc4cc(F)ccc34)CC2)c1 | 2 |
| O=S(=O)(NCCCCN1CCN(c2cccc3[nH]ccc23)CC1)c1ccc2ccccc2c1 | 29 |
| N#Cc1cccc(S(=O)(=O)NCCCN2CCC(c3noc4cc(F)ccc34)CC2)c1 | 3 |
| O=S(=O)(NCCCCN1CCC(c2noc3cc(F)ccc23)CC1)c1cc2ccccc2s1 | 4 |
| Cc1cccc(S(=O)(=O)NCCCN2CCN(c3nsc4ccccc34)CC2)c1 | 0 |
| O=c1[nH]c2ccc(S(=O)(=O)NCCCCN3CCN(c4noc5ccccc45)CC3)cc2o1 | 4 |
| O=S(=O)(NCCCN1CCC(c2noc3cc(F)ccc23)CC1)c1ccc2cn[nH]c2c1 | 12 |
| O=c1[nH]c2cccc(N3CCN(CCCNS(=O)(=O)c4ccc5ccccc5c4)CC3)c2[nH]1 | 44 |
| O=S(=O)(NCCCCN1CCC(c2noc3cc(F)ccc23)CC1)c1csc2ccccc12 | -5 |
